FYI, the data here is from ChEMBL document CHEMBL1137327.

# TESTED SYSTEM: Melanin-concentrating hormone receptor 1 (Homo sapiens)
# Sequence (Q99705 whole entry): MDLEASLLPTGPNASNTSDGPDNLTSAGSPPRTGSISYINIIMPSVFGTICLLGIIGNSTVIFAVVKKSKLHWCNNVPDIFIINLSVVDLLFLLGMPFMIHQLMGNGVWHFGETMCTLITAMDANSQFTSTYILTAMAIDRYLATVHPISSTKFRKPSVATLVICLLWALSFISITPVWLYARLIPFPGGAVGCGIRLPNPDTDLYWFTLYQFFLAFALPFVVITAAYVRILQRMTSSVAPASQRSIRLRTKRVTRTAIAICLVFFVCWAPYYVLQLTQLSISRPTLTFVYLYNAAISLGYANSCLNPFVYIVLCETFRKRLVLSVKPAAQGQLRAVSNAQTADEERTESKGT
# PROCEDURE SUMMARY: Displacement of [125I]MCH from MCHr1 expressed in IMR32 cells
# Format: cell-based, IMR-32
pIC50: −log10 of the molar value.
ATTRIBUTE MEASURED: pIC50

MOLECULE	TESTED SYSTEM	ATTRIBUTE MEASURED	RESULT
COc1ccc2c(=O)cc(C(=O)NCCC3CCCN3Cc3ccc4c(c3)OCO4)oc2c1 (centres undefined)	Melanin-concentrating hormone receptor 1 (Homo sapiens)	pIC50	< 5.70
COc1ccc2c(=O)cc(C(=O)NC3CCC(CNCc4ccc5c(c4)OCO5)CC3)oc2c1 (centres undefined)	Melanin-concentrating hormone receptor 1 (Homo sapiens)	pIC50	< 5.70

Param item = `COc1ccc2c(=O)cc(C(=O)N3CCN(Cc4ccc5c(c4)OCO5)CC3)oc2c1` ; retrieve measured pIC50.
< 5.70

Param item = `O=C(NC1CCN(Cc2cccc3c2OCO3)CC1)c1cc(=O)c2ccc(F)cc2o1` ; retrieve measured pIC50.
< 6.15
